Target: Rac-1 (Homo sapiens (Human))
Test: Rac inhibition assay (labeled GTP)
Type: binding
Details: read-out: Rac-1 % Inh.
MEASURED_PROPERTY: inhibition at 20 µM

Known inhibition at 20 µM results, listed for orientation:
{"columns": ["COMPOUND", "MEASURED_PROPERTY", "DATA_VALUE"],
 "data": [
  ["CC(C)c1csc2c(O)nc(-c3ccccn3)nc12 [drawing 3806]", "inhibition at 20 µM", "51 to 75%"],
  ["Cn1cnc(-c2nc(O)c3c(-c4ccccc4)c(-c4ccncc4)sc3n2)c1 [drawing 3846]", "inhibition at 20 µM", "0%"],
  ["Cc1c(C(=O)O)sc2c(O)nc(-c3ccccn3)nc12 [drawing 3794]", "inhibition at 20 µM", "76 to 100%"],
  ["Nc1nc(O)c2sc(-c3cccc(C(=O)NCc4cccc(O)n4)c3)cc2n1 [drawing 3864]", "inhibition at 20 µM", "1 to 25%"],
  ["Cc1sc2c(O)nc(-c3ccccn3)nc2c1C(=O)O [drawing 3801]", "inhibition at 20 µM", "1 to 25%"],
  ["Nc1cccc(-c2csc3c(O)nc(-c4ccccn4)nc23)n1 [drawing 3832]", "inhibition at 20 µM", "76 to 100%"],
  ["Nc1nc(-c2ccccn2)nc2scc(Br)c12 [drawing 3766]", "inhibition at 20 µM", "51 to 75%"],
  ["COC1CCN(c2nc(-c3nccn3C)nc3sc(-c4ccccc4)c(-c4ccccc4)c23)C1 (stereo not drawn) [drawing 3889]", "inhibition at 20 µM", "25 to 50%"]
]}

As a next step, examine the compound that follows.
Input: Please report the measured inhibition at 20 µM for COc1cc(CCNC(=O)c2csc3nc(-c4ccccn4)nc(N4CCOCC4)c23)ccn1 [drawing 3636]
Output: 51 to 75%

----------
Target: KRas wild type (Homo sapiens (Human))
Sequence (P01116-2 other isoform, or with tags, fused parts or gaps): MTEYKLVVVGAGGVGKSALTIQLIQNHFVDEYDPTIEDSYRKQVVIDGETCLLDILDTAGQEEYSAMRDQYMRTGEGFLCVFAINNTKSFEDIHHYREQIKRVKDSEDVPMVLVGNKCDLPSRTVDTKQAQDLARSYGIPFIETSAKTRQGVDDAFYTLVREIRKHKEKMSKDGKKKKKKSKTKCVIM
Experiment: Ras GTP binding domain inhibition assay (labeled GTP)
Conditions: 20 μM; read-out: KRas wild type, % Inh.
Each entry below lists one item and its recorded inhibition at 20 µM value.

Known inhibition at 20 µM results, listed for orientation:
{"columns": ["COMPOUND", "DATA_VALUE"],
 "data": [
  ["OCCNc1nc(-c2ccccn2)nc2scc(-c3ccccc3)c12 [drawing 2603]", "1 to 25%"],
  ["O=C(c1ccn(-c2ccccc2)n1)N1CCCc2c(O)nc(-c3ccccn3)nc21 [drawing 2644]", "25 to 50%"],
  ["O=C(c1ccc2ccccc2n1)N1CCCc2c(O)nc(-c3ccccn3)nc21 [drawing 2642]", "25 to 50%"],
  ["O=c1nc(-c2ccccn2)[nH]c2scc(-c3ccccc3Cl)c12 [drawing 2585]", "25 to 50%"],
  ["O=C(Nc1nc(-c2ccccn2)cs1)c1cccnc1 [drawing 2576]", "25 to 50%"]
]}

Input: Please give measured inhibition at 20 µM of the following entry: COC(=O)c1cccc(CN2CCC(CSc3ccccc3)C2)c1C#N (stereo not shown) [drawing 2611]
Output: 1 to 25%

Input: Report inhibition at 20 µM for O=C(Nc1nnc(-c2ccccn2)[nH]1)c1ccn(-c2ccccc2)n1 [drawing 2464]
Output: 51 to 75%

Input: Using the record for Cc1cc(C(=O)Nc2nc(-c3ccccn3)cs2)no1 [drawing 2568] , state its measured inhibition at 20 µM.
Output: 25 to 50%

Input: Indicate the recorded inhibition at 20 µM value for this compound: OCCOCCNc1nc(-c2ccccn2)nc2scc(-c3ccccc3)c12 [drawing 2609]
Output: 25 to 50%

Input: Check the records and state inhibition at 20 µM for COc1ccc(CCC(=O)Nc2nnc(-c3ccccn3)[nH]2)cc1 [drawing 2469]
Output: 25 to 50%

----------
Target: KRas G12D/Q61H double mutant (Homo sapiens (Human), UniProt P01116, G12D/Q61H)
Sequence (P01116-2 other isoform, or with tags, fused parts or gaps G12D/Q61H): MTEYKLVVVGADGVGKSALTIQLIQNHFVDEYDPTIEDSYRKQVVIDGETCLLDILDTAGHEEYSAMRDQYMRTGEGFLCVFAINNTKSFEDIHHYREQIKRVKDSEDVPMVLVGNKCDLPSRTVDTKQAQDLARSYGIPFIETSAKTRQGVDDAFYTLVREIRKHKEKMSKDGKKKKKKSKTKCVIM
Test: Ras GTP binding domain inhibition assay (labeled GTP)
Conditions: 20 μM compound; KRas G12D/Q61H double mutant; read-out: % Inhibition at 20 μM of K-Ras mutant and wild-type protein, KRas G12D Q61H
Here the recorded inhibition at 20 µM is given for each entry.

{"columns": ["MOLECULE", "inhibition at 20 µM"],
 "data": [
  ["O=C(NCCc1ccncn1)c1csc2nc(-c3ccccn3)nc(N3CCOCC3)c12 [drawing 3500]", "25 to 50%"],
  ["Cc1ccc(Sc2ccc(S(=O)(=O)NC3CCCC3)cc2)cc1C", "1 to 25%"]
]}

Input: // Input: Cn1cnc(-c2nc(O)c3sc(-c4ccncc4)c(-c4ccccc4)c3n2)c1 [drawing 3549] . Output its inhibition at 20 µM only.
Output: 0%

----------
Target: KRas G12C mutant (Homo sapiens (Human), UniProt P01116, G12C)
Sequence (P01116-2 other isoform, or with tags, fused parts or gaps G12C): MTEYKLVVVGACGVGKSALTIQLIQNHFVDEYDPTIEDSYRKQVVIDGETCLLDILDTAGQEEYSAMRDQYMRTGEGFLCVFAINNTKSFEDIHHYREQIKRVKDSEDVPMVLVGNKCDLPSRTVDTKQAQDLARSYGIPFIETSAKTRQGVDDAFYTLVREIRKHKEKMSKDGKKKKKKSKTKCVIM
Assay: Ras GTP binding domain inhibition assay (labeled GTP)
Conditions: 20 μM compound; KRas G12C; read-out: % Inhibition at 20 μM of K-Ras mutant and wild-type protein, KRas G12C
Overview of reported inhibition at 20 µM across a group of compounds:

{"columns": ["COMPOUND", "inhibition at 20 µM"],
 "data": [
  ["Oc1nc(-c2ccccn2)nc2c(-c3cc(CN4CCCC4)ccc3F)csc12 [drawing 3502]", "51 to 75%"],
  ["COc1nc(-c2ccccn2)nc2c(C3CCCC3)csc12 [drawing 3470]", "25 to 50%"],
  ["CCC(C)c1csc2c(OC)nc(-c3ccccn3)nc12 (stereo not drawn) [drawing 3471]", "25 to 50%"],
  ["COc1c(O)nc(-c2ccccn2)nc1Oc1cccc(C(F)(F)F)c1 [drawing 3557]", "25 to 50%"],
  ["Cn1cnc(-c2nc(O)c3scc(-c4cccc(OC(F)(F)F)c4)c3n2)c1 [drawing 3606]", "1 to 25%"]
]}

Input: Supply measured inhibition at 20 µM of Cn1ccnc1-c1nc(O)c2scc(-c3ccccc3Cl)c2n1 [drawing 3615] in your reply.
Output: 25 to 50%

Input: Give inhibition at 20 µM for the following compound: COc1ccc(-c2csc3c(O)nc(-c4nccn4C)nc23)cn1 [drawing 3613]
Output: 25 to 50%

Input: State, in one line, measured inhibition at 20 µM of COc1ccc(-c2c(-c3ccccc3)sc3c(O)nc(-c4nccn4C)nc23)cn1 [drawing 3593]
Output: 1 to 25%

Input: Could you please provide reported inhibition at 20 µM for Oc1nc(-c2ncccn2)nc2c(-c3cccc(C(F)(F)F)c3)csc12 [drawing 3608] ? Thanks!
Output: 25 to 50%

----------
Biological target: Rho-A (Homo sapiens (Human), UniProt P61586)
Sequence (P61586 whole entry): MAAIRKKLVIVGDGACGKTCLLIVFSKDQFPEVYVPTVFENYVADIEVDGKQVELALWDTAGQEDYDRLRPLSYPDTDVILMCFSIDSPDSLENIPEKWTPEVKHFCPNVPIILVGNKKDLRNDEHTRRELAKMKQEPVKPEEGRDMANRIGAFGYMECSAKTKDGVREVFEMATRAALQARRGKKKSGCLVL
Test: Rho inhibition assay (labeled GTP)
Format: binding
Settings: read-out: Rho-A % Inh.
MEASURED_PROPERTY: inhibition at 20 µM

Here are 3 molecules together with their reported answers.
{"columns": ["MOLECULE", "inhibition at 20 µM"],
 "data": [
  ["Cn1ccnc1-c1nc(O)c2scc(-c3cccc(C(F)(F)F)c3)c2n1 [drawing 3916]", "25 to 50%"],
  ["Oc1nc(-c2ccccn2)nc2c3c(sc12)CNC3 [drawing 3796]", "76 to 100%"],
  ["CC(C)Oc1cnc(-c2ccccn2)nc1O [drawing 3800]", "76 to 100%"]
]}

Input: Retrieve inhibition at 20 µM measured for COc1cnc(CN)[nH]c1=O [drawing 3690] and print it.
Output: 25 to 50%

Input: Assign inhibition at 20 µM to the following record: Oc1nc(-c2ccccn2)nc2sc3c(c12)CCCNC3 [drawing 3724]
Output: 51 to 75%

----------
Target: KRas G12D/Q61H double mutant (Homo sapiens (Human), UniProt P01116, G12D/Q61H)
Test: Ras GTP binding domain inhibition assay (labeled GTP)
Settings: 20 μM compound; read-out: % Inhibition at 20 μM KRas G12D Q61H
MEASURED_PROPERTY: inhibition at 20 µM

{"columns": ["COMPOUND", "TEST_SYSTEM", "MEASURED_PROPERTY", "DATA_VALUE"],
 "data": [
  ["COc1cccc(CN2CCN(C(=O)c3csc4c(O)nc(-c5ccccn5)nc34)CC2)c1 [drawing 2763]", "KRas G12D/Q61H double mutant (Homo sapiens (Human), UniProt P01116, G12D/Q61H)", "inhibition at 20 µM", "25 to 50%"],
  ["CCN(CC(=O)Nc1ccc(OC)cc1)Cc1coc(-c2ccc(C)cc2C)n1", "KRas G12D/Q61H double mutant (Homo sapiens (Human), UniProt P01116, G12D/Q61H)", "inhibition at 20 µM", "25 to 50%"],
  ["O=C(CCc1nc2ccccc2[nH]1)Nc1nnc(-c2ccccn2)[nH]1", "KRas G12D/Q61H double mutant (Homo sapiens (Human), UniProt P01116, G12D/Q61H)", "inhibition at 20 µM", "51 to 75%"],
  ["CN(C(=O)c1ccc(COc2ccccc2)o1)C1CCCCC1", "KRas G12D/Q61H double mutant (Homo sapiens (Human), UniProt P01116, G12D/Q61H)", "inhibition at 20 µM", "1 to 25%"]
]}

Input: Output inhibition at 20 µM of COc1ccnc(-c2nc(O)c3ccsc3n2)c1 [drawing 2708]
Output: 51 to 75%

Input: State, in one line, measured inhibition at 20 µM of `Cc1c(C(=O)N(c2ccccc2)C(C)C)cnn1-c1ccccn1`
Output: 1 to 25%

Input: Supply measured inhibition at 20 µM of `O=c1[nH]c(-c2ccccn2)nc2ccccc12` in your reply.
Output: 25 to 50%

Input: Given the compound `Cc1cccc(C)c1Oc1ccccc1NCc1nnc(C2CC2)o1` , write its reported inhibition at 20 µM.
Output: 25 to 50%

Input: Give recorded inhibition at 20 µM. CC(Oc1ccc(F)cc1)c1nnc(SCCOc2ccc(F)cc2)o1 (centres unmarked)
Output: 25 to 50%

Input: Report inhibition at 20 µM for `CC(C)Cc1noc(CN(C)CC23CC4CC(CC(C4)C2)C3)n1`
Output: 25 to 50%

Input: Give me measured inhibition at 20 µM, please, for this compound: N#Cc1ccc(COCC(=O)Nc2nc(-c3ccccn3)nc3sccc23)cc1 [drawing 2799]
Output: 25 to 50%
